system: NCI-H522 lung; test: NCI tumour cell line growth inhibition, 48 h; in the data active = GI50 below about 0.43 µM; inactive = the rest
Log the outcome using a class from 1 = active, -1 = inactive

Solved entries:
q: How was CO[C@H](C(=O)[C@@H](O)[C@@H](C)O)[C@@H]1Cc2cc3cc(O[C@H]4C[C@@H](O[C@H]5C[C@@H](O)[C@H](O)C(C)O5)[C@H](O)C(C)O4)c(C)c(O)c3c(O)c2C(=O)[C@H]1O[C@H]1C[C@@H](O[C@H]2C[C@@H](O[C@H]3C[C@@H](OC)[C@H](O)C(C)O3)[C@@H](O)C(C)O2)C(O)(O)C(C)O1 (some centres not stated) classified in this test?
a: 1

q: What did this assay record as the result for Cn1cc(-c2nonc2-c2c[nH]c3ccccc23)c2ccccc21 ?
a: 1

q: Could you check what this test reported for CC1=NN(C(=O)c2ccccc2O)C(=O)/C1=C/c1ccc([N+](=O)[O-])cc1 ?
a: -1

Now consider a different compound.
q: Per the assay record, what outcome was assigned to C=C1C(=O)O[C@H]2[C@H]1CC/C(CNC(=O)/C=C/c1ccc(Br)cc1)=C\CC[C@@]1(C)O[C@@H]21 ?
a: -1

Source listed as PubChem BioAssay (NCI).
